- experimentalTarget: Thromboxane A2 receptor (Homo sapiens, UniProt P21731); note: assay procedure not described here
- Sequence (P21731 whole entry): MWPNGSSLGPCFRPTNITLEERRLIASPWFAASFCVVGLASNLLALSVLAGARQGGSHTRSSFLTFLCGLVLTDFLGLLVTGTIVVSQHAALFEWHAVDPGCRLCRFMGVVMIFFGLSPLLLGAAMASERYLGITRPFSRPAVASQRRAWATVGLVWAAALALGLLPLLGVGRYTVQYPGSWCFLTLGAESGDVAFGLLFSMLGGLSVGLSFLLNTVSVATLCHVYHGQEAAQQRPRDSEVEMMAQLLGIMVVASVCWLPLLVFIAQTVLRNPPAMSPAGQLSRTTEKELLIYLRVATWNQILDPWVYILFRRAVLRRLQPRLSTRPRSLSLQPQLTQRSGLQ
- Assay type: functional, cell-based
# Lookup of reported AC50 keyed by entry

In the examples that follow, each entry is paired with its recorded AC50.
compound=O=C1CN=C(c2ccccc2)c2c(sc3c2CCCC3)N1 result="> 30 µM"
compound=Cc1nc(-c2ccc(OCC(C)C)c(C#N)c2)sc1C(=O)O result="> 30 µM"
compound=C[N+]1(C)[C@@H]2C[C@@H](OC(=O)[C@H](CO)c3ccccc3)C[C@H]1[C@@H]1O[C@@H]12 result="> 30 µM"
compound="NS(=O)(=O)c1cc2c(cc1Cl)NC(CC1CCCC1)NS2(=O)=O (centres undefined) [CYCLOPENTHIAZIDE]" result="> 30 µM"
compound="COc1ccc(CCC(C)NCC(O)c2ccc(O)c([S+](C)[O-])c2)cc1 (centres undefined)" result="> 30 µM"
compound="Cc1c(-c2ccccc2)oc2c(C(=O)OCCN3CCCCC3)cccc2c1=O [FLAVOXATE]" result="> 30 µM"
compound=Nc1nc2ccc(OC(F)(F)F)cc2s1 result="> 30 µM"
compound="CCC(=O)O[C@H]1[C@H](O[C@@H]2[C@@H](C)[C@H](O[C@H]3C[C@@](C)(OC)[C@@H](O)[C@H](C)O3)[C@@H](C)C(=O)O[C@H](CC)[C@@](C)(O)[C@H](O)[C@@H](C)C(=O)[C@H](C)C[C@@]2(C)O)O[C@H](C)C[C@@H]1N(C)C [ERYTHROMYCIN PROPIONATE]" result="> 3 µM"

[ask] Entry O=C1c2ccccc2C(=O)C1C(=O)C(c1ccccc1)c1ccccc1 has what AC50?
[reply] 1.84 µM

[ask] // query AC50 value for entry Cc1cc2c(cc1CC(=O)c1sccc1S(=O)(=O)Nc1onc(C)c1Cl)OCO2
[reply] > 10 µM
